- Measurement Target: T1, Recombinant in-house Human FcRn protein (human, UniProt P55899 24-297; P61769 21-119, limits assumed)
- T1 construct: also called huFCRN; HuFcRn
- T1 sequence (P55899 24-297 limits assumed, chain 1 of 2): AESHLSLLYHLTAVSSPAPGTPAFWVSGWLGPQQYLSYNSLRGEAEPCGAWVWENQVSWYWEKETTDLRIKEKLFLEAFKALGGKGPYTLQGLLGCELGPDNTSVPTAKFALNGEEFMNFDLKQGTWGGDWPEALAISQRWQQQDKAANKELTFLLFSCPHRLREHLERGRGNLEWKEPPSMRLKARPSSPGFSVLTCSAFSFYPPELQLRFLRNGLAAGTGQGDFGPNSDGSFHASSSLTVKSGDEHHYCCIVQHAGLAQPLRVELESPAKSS
- T1 sequence (P61769 21-119 limits assumed, chain 2 of 2): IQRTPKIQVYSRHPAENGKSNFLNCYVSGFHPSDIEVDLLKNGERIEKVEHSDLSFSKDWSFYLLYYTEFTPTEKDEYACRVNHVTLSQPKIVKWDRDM
- Assay Method Text: competitive binding ELISA, pH 6.0, in triplicate; competitor IgG
Flag rule - IC50 less than 3 nM flags class 1; the remaining entries get class 0.

Binder	Group Label
Fc Fragment 16 (other, Human IgG1 Fc fragment; substitutions already in the entry) DKTHTCPPCPAPELLGGPSVFLFPPKPKDTLYITREPEVTCVVVDVSHEDPEVKFNWYVDGVEVHNAKTKPREEQYNSTYRVVSVLTVDHQDWLNGKEYKCKVSNKALPAPIEKTISKAKGQPREPQVYTLPPSRDELTKNQVSLTCLVKGFYPSDIAVEWESNGQPENNYKTTPPVLDSDGSFFLYSKLTVDKSRWQQGNVFSCSVMHEALKYHYTQKSLSLSPG	class 0
Fc Fragment 13 (other, Human IgG1 Fc fragment; substitutions already in the entry) DKTHTCPPCPAPELLGGPSVFLFPPKPKDTLYITREPEVTCVVVDVSHEDPEVKFNWYVDGVEVHNAKTKPREEQYNSTYRVVSVLTVLHQDWLNGKEYKCKVSNKALPAPIEKTISKAKGQPREPQVYTLPPSRDELTKNQVSLTCLVKGFYPSDIAVEWESNGQPENNYKTTPPVLDSDGSFFLYSKLTVDKSRWQQGNVFSCSVMHEALRFHYTQKSLSLSPG	class 1
Fc Fragment 2 (other, Human IgG1 Fc fragment; substitutions already in the entry; also called Fc195) DKTHTCPPCPAPELLGGPSVFLFPPKPKDTLYITREPEVTCVVVDVSHEDPEVKFNWYVDGVEVHNAKTKPREEQYNSTYRVVSVLTVLHQDWLNGKEYKCKVSNKALPAPIEKTISKAKGQPREPQVYTLPPSRDELTKNQVSLTCLVKGFYPSDIAVEWESNGQPENNYKTTPPVLDSDGSFFLYSKLTVDKSRWQQGNVFSCSVLHEALKFHYTQKSLSLSPG	class 1
Fc Fragment 15 (other, Human IgG1 Fc fragment; substitutions already in the entry) DKTHTCPPCPAPELLGGPSVFLFPPKPKDTLYITREPEVTCVVVDVSHEDPEVKFNWYVDGVEVHNAKTKPREEQYNSTYRVVSVLTVDHQDWLNGKEYKCKVSNKALPAPIEKTISKAKGQPREPQVYTLPPSRDELTKNQVSLTCLVKGFYPSDIAVEWESNGQPENNYKTTPPVLDSDGSFFLYSKLTVDKSRWQQGNVFSCSVMHEALKFHYTQKSLSLSPG	class 0
Fc Fragment 1 (other, Human IgG1 Fc fragment (EU 221-446) with the named substitutions already in the entry; also called Efgartigimod (Efgart); Efgartigimod without the C-terminal lysine) DKTHTCPPCPAPELLGGPSVFLFPPKPKDTLYITREPEVTCVVVDVSHEDPEVKFNWYVDGVEVHNAKTKPREEQYNSTYRVVSVLTVLHQDWLNGKEYKCKVSNKALPAPIEKTISKAKGQPREPQVYTLPPSRDELTKNQVSLTCLVKGFYPSDIAVEWESNGQPENNYKTTPPVLDSDGSFFLYSKLTVDKSRWQQGNVFSCSVMHEALKFHYTQKSLSLSPG	class 1
Fc Fragment 20 (other, Human IgG1 Fc fragment; substitutions already in the entry) DKTHTCPPCPAPELLGGPSVFLFPPKPKDTLYITREPEVTCVVVDVSHEDPEVKFNWYVDGVEVHNAKTKPREEQYNSTYRVVSVLTVDHKDWLNGKEYKCKVSNKALPAPIEKTISKAKGQPREPQVYTLPPSRDELTKNQVSLTCLVKGFYPSDIAVEWESNGQPENNYKTTPPVLDSDGSFFLYSKLTVDKSRWQQGNVFSCSVMHEALKYHYTQKSLSLSPG	class 0
Fc Fragment 19 (other, Human IgG1 Fc fragment; substitutions already in the entry) DKTHTCPPCPAPELLGGPSVFLFPPKPKDTLYITREPEVTCVVVDVSHEDPEVKFNWYVDGVEVHNAKTKPREEQYNSTYRVVSVLTVDHKDWLNGKEYKCKVSNKALPAPIEKTISKAKGQPREPQVYTLPPSRDELTKNQVSLTCLVKGFYPSDIAVEWESNGQPENNYKTTPPVLDSDGSFFLYSKLTVDKSRWQQGNVFSCSVMHEALKFHYTQKSLSLSPG	class 0
Fc Fragment 12 (other, Human IgG1 Fc fragment; substitutions already in the entry) DKTHTCPPCPAPELLGGPSVFLFPPKPKDTLYITREPEVTCVVVDVSHEDPEVKFNWYVDGVEVHNAKTKPREEQYNSTYRVVSVLTVLHQDWLNGKEYKCKVSNKALPAPIEKTISKAKGQPREPQVYTLPPSRDELTKNQVSLTCLVKGFYPSDIAVEWESNGQPENNYKTTPPVLDSDGSFFLYSKLTVDKSRWQQGNVFSCSVMHEALRYHYTQKSLSLSPG	class 1
Fc Fragment 3 (other, Human IgG1 Fc fragment; substitutions already in the entry; also called Fc197) DKTHTCPPCPAPELLGGPSVFLFPPKPKDTLYITREPEVTCVVVDVSHEDPEVKFNWYVDGVEVHNAKTKPREEQYNSTYRVVSVLTVLHQDWLNGKEYKCKVSNKALPAPIEKTISKAKGQPREPQVYTLPPSRDELTKNQVSLTCLVKGFYPSDIAVEWESNGQPENNYKTTPPVLDSDGSFFLYSKLTVDKSRWQQGNVFSCSVMHEALKYHYTQKSLSLSPG	class 1

Pending binder:
is_below(IC50, 3 nM) for Fc Fragment 17 (other, Human IgG1 Fc fragment; substitutions already in the entry) DKTHTCPPCPAPELLGGPSVFLFPPKPKDTLYITREPEVTCVVVDVSHEDPEVKFNWYVDGVEVHNAKTKPREEQYNSTYRVVSVLTVDHQDWLNGKEYKCKVSNKALPAPIEKTISKAKGQPREPQVYTLPPSRDELTKNQVSLTCLVKGFYPSDIAVEWESNGQPENNYKTTPPVLDSDGSFFLYSKLTVDKSRWQQGNVFSCSVLHEALKFHYTQKSLSLSPG ?
class 0
